Reference source for all entries: the NIST ThermoML archive (doi:10.1016/j.jct.2012.08.030)

Assay: refractive index (Na D-line) (dimensionless)
Details: 298.15 K; 101.33 kPa; Liquid; Standard Abbe refractometry
parameter: refractive index

| compound | refractive index |
| --- | --- |
| CO | 1.3272 |
| CCCCn1cc[n+](C)c1.COS(=O)(=O)[O-] [1-butyl-3-methylimidazolium methyl sulfate] | 1.47824 |
| CCCO | 1.38334 |
| CCCCO | 1.39747 |
| CC(C)O | 1.37527 |

* * *

Details: 308.15 K; 101.3 kPa; Liquid; Sing-around technique in a fixed-path interferometer
parameter: speed of sound (m/s)

| compound | speed of sound, m/s |
| --- | --- |
| CCCO [propan-1-ol] | 1172.4 |
| CC(C)O [propan-2-ol] | 1103.9 |
| CO [methanol] | 1072 |
| CCCCn1cc[n+](C)c1.COS(=O)(=O)[O-] [1-butyl-3-methylimidazolium methyl sulfate] | 1630 |
| CCCCO [butan-1-ol] | 1206.3 |

* * *

Settings: 313.15 K; 101.3 kPa; Liquid; Sing-around technique in a fixed-path interferometer
parameter: speed of sound (m/s)

| molecule | speed of sound / m/s |
| --- | --- |
| CCCCn1cc[n+](C)c1.COS(=O)(=O)[O-] [1-butyl-3-methylimidazolium methyl sulfate] | 1617.9 |
| CO | 1055.9 |
| CCCCO | 1189.7 |
| CC(C)O | 1086.6 |
| CCCO | 1155.5 |
